Every entry's value here was drawn from the supplement of paper PMC10065799.

Molecular target: Grb2 SH2 (UniProt P62993)
Sequence (P62993 whole entry, looked up): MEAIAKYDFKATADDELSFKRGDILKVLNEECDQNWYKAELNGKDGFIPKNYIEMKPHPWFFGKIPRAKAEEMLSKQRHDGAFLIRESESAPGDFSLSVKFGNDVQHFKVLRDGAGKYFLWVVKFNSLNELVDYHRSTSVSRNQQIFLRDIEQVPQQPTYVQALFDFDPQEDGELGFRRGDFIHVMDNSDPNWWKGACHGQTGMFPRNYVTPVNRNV
Test: SH2 binding enrichment of the phosphorylated peptide, bacterial display (enrichment ratio); higher = better substrate or ligand; peptides without Tyr show the background
measurement_type: SH2 binding enrichment
Reply: number alone, nothing else.

Answered examples (3):
LSNPAYCLLLA [DDR1_Y513_R514C] ... 0.683
QMVGMYASSSM [AVPR2_Y124_Y128S] ... 0.869
KILGTYYETGS [PAX2_Y72_R71T] ... 1.02

Now look at this entry.
Fill blank: measured SH2 binding enrichment of the sequence PAIFTYDEFKK [COL8A2_Y648_T645I_YF] is ____. 0.829

---

System: AncSZ
Experiment: phosphorylation enrichment, bacterial display (enrichment ratio); higher = better substrate or ligand; peptides without Tyr show the background
Classification field: enter fulfilled for phosphorylation enrichment values not below 1, not fulfilled for values below it.

Previously resolved entries follow.
YADGVYQALEE [DUOX2_Y70] ... fulfilled
ANYTEYVATSW [CDKL5_Y171_R175S] ... fulfilled
VLSIDYYFPPQ [AR_Y552_P549S] ... fulfilled

Answer whether phosphorylation enrichment of DPLASYLDKVR [KRT10_Y160_R156P] is greater than or equal to 1. not fulfilled

Test whether the sequence NRNVRYLTLDI [AKR1C2_Y305] records phosphorylation enrichment of 1 or higher. not fulfilled

Textbook exercise: given the entry NSFKYYMSDDI [ATRX_Y204_C200S] , state whether its phosphorylation enrichment is greater than or equal to 1. not fulfilled

Say whether QRIFQYIRSRF [DYRK1B_Y273_Q275R_YF] shows phosphorylation enrichment of 1 or more. fulfilled

Assess whether reported phosphorylation enrichment for ALADKYHGGGG [HBB_Y146_H144D] sits at 1 or higher. not fulfilled

Is it the case that RCKSHYAAFSV [C1QTNF1_Y145] has phosphorylation enrichment reaching or exceeding 1? fulfilled

Hello, I need to know if VLICAYLLHRG [PTEN_Y138_M134L] has measured phosphorylation enrichment not below 1. Thanks! fulfilled

Tell me whether phosphorylation enrichment is at least 1 here: FTFTSYFMHWV [IGHV1-46_Y51_YF] fulfilled

Could you verify whether the entry LDMSQYFRLFN [CPT2_Y217] shows phosphorylation enrichment of no less than 1? fulfilled

Quick check: does IRTGIYHGGEP [PIK3CA_Y361_V356I] have phosphorylation enrichment greater than or equal to 1? not fulfilled

Item CPPKVYELMIA [ABL2_Y515_R519I] with phosphorylation enrichment of 1 or above? fulfilled

---

Tested on: c-Src
Assay: phosphorylation enrichment, bacterial display (enrichment ratio); higher = better substrate or ligand; peptides without Tyr show the background
Each item that follows carries a reported phosphorylation enrichment.

SVVVPYDPPEV [TP53_Y220_E221D] ... 0.499

Consider the sequence shown here: SLLPDYEDEEE [ZNF830_Y159] What is its recorded phosphorylation enrichment? 0.556

Fill in the blank: the reported phosphorylation enrichment of ECKLFYSRKEG [PTPN11_Y263_L262F] is ____. 0.465

What value of measured phosphorylation enrichment is listed for LEEFQYIGELQ [MSH2_Y856_S860L] ? 0.738

Quick check: phosphorylation enrichment of AGIENYKSRFG [NKD2_Y256_T257K] ? 0.363

Value lookup for phosphorylation enrichment; key = CTTLHYNYMCN [TP53_Y234_I232L] 0.508
